# assay protocol: HepG2 cytotoxicity, primary screen, cytotoxicity control for P. falciparum antimalarial project, cell-based, ATP luminescence (AID 2303);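 further: 0% = DMSO wells and 100% = digitonin-killed cells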
# run parameters: HepG2 viability, 24-48 h, at 10 µM, stronger effect = higher value
Quick reference for inhibition among some compounds

compound | inhibition [%]
CC1(CCc2ccccc2)N=C(Nc2ccc(Cl)cc2)N=C(N)C1c1ccc(Cl)c(Cl)c1 (centres undefined) | 81
COc1cc(CNCCCNc2nc3ncccc3[nH]2)c2[nH]cc(Br)c2c1 | 12
COc1ccc(CNCc2ccc(F)cc2)cc1-c1ccc(S(=O)(=O)NCCN2CCCC2)cc1 | 38
O=C(Nc1ccc(OC2CCN(Cc3ccc(F)cc3)C2)c(Cl)c1)c1ccco1 (centres undefined) | 9
CN(C)c1ccc(N=C2N=C(Nc3ccc(N(C)C)cc3)c3ccccc32)cc1 | 23
CN(CCCNC(=S)NC12CC3CC(CC(C3)C1)C2)CCCNc1ccnc2cc(Cl)ccc12 | 73
CCCCCCC(C)c1cc(O)c2c(c1)OC(=O)CC2(CC)c1ccccn1 (centres undefined) | 15
Cc1cc(C2CCN(CCCCNC(=O)c3ccc(NC(=O)c4ccc(Cl)cc4)cc3)CC2)c(C)cc1OC(C)C | 22
Cc1ccc(S(=O)(=O)c2nc(S(=O)(=O)c3ccccc3)sc2NCC2CCCO2)cc1 (centres undefined) | 4
CNC(=O)CNC(=O)COc1cccc2ccccc12 | 3
Cc1cccc2[nH]c(-c3ccc(-c4cccc(CN5CCCCC5)c4)s3)nc12 | 11
CCc1c[nH]c2c(N3CCCS3(=O)=O)cc(C(=O)N[C@@H](Cc3ccccc3)[C@H](O)CNC(C)(C)c3cccc(C(F)(F)F)c3)cc12 | 20
Cc1cccc(-c2ccc(CNC3CCN(CC4Cn5c(=O)ccc6ccc(F)c4c65)CC3)cn2)c1 (centres undefined) | -2
Cc1cccc(CNc2nc(C)cc(N[C@@H](CC(C)C)C(=O)NCCOc3ccccc3)n2)c1 | 15
CS(=O)(=O)NCCCNCc1cccc(-c2cccc(-c3nc4ccc(C(F)(F)F)cc4[nH]3)c2)c1 | 17
CC(C)CNCc1cccc(-c2cccc(CN(CCN(C)C)C(=O)NCCc3ccccc3)c2)c1 | 84
CC(C)(CNCc1cc(Cl)cc(Cl)c1)c1nc(-c2ccc(Cl)c(O)c2)c(-c2ccnc(N)n2)[nH]1 | 54
CCN(CC)CCNC(=O)c1ccc(NC(=O)c2cn(-c3ccccc3)nc2-c2cccs2)cc1 | 30
O=C(CCc1cnc[nH]1)Nc1cccc(-c2cccc(-c3nc4ccccc4[nH]3)c2)c1 | 8

* * *

# assay protocol: antimalarial activity against Dd2 strain (AID 2302);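 further: 0% = DMSO untreated growth and 100% = chloroquine plus artemisinin killed control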
# run parameters: P. falciparum Dd2 in RBCs, LDH growth readout, 72 h; at 2 µM; stronger effect = higher value

smiles input | reading unit | growth inhibition
CC(=O)NCC(=O)NC1=NC(C)(C)N(OCc2ccc3ccccc3c2)C(N)=N1 | % | 97
O[C@@H](c1ccc2ccccc2c1)[C@@H]1CN(CCc2ccccc2)CC[C@@]1(O)c1ccccc1 | % | 96
CO/C(=C\C=C\c1cc2cc(Cl)c(Cl)cc2[nH]1)C(=O)NCCCNCCN(C)c1ccccc1 | % | 55
CN(CC(=O)Nc1cc(C(F)(F)F)ccc1-n1cncn1)Cc1ccc2ccccc2c1 | % | 99
Cc1sc(CNCCCNc2cc(=O)c3ccccc3[nH]2)c(C(F)(F)F)c1C | % | 70
